molecule | melting point
COC(=O)c1cccc(-c2cc(-c3ccccc3)on2)c1 [Example 20, methyl 3-(5-phenyl-3-isoxazolyl)benzoate] | 99 to 100 °C
COC(=O)c1ccc(-c2nnc(-c3ccc(C(C)(C)C)cc3)o2)cc1 [Example 47] | 210 to 211 °C
COC(=O)c1ccc(-c2nnc(-c3ccc(C(F)(F)F)cc3)o2)c([N+](=O)[O-])c1 [Example 67] | 173 to 174 °C
COC(=O)c1ccc(-c2nnc(-c3ccccc3)o2)cc1 [Example 45] | 172 to 173 °C
O=C(O)c1ccc(-c2nc(-c3ccc(C(F)(F)F)cc3)no2)cc1 [Example 42] | 293 to 294 °C
O=C(O)c1ccc(-c2nnc(-c3ccccc3[N+](=O)[O-])o2)cc1 [Example 52] | 239 to 240 °C
O=C(O)c1ccc(-c2nnc(-c3ccccc3)o2)cc1 [Example 48] | > 300 °C
O=C(O)c1cccc(-c2ccc(-c3ccc(C(F)(F)F)cc3)o2)c1 [Example 9] | 271 to 272 °C
COC(=O)c1cccc(-c2cc(-c3ccc(C(F)(F)F)cc3)on2)c1 [Example 31] | 139 to 140 °C
